Provide the reported LD50 of each item.
experiment: Acute toxicity comparison (LD50, Litchfield and Wilcoxan); settings: in vivo; Table 11; oral; species not given

# LD50 (molecule: C#CCN1C(=O)CN=C(c2ccccc2Cl)c2cc(Cl)ccc21 [Compound 4] ) is > 5000 mg/kg

# LD50 (molecule: C#CCN1C(=O)CN=C(c2ccccc2)c2cc(Cl)ccc21 [Compound 1] ) is 5820 mg/kg

----------
Provide the reported LD50 of each item.
assay: Acute toxicity in the rat (oral); settings: in vivo
Number in mg/kg, nothing else.

# LD50 (compound: C#CCN1C(=O)CN=C(c2ccccc2)c2cc([N+](=O)[O-])ccc21 [Compound 2] ) is 876

# LD50 (compound: C#CCN1C(=O)CN=C(c2ccccc2)c2cc(Cl)ccc21 [Compound 1] ) is 6490
